- STUDY SYSTEM: T1, biotinylated nanobody-Fc fusion bFcNpD2 (C-terminal AviTag) (llama)
- T1 construct: as the VHH of m11; also called OROV FcNpD2 BAP; not shown: Fc (human IgG1 hinge and Fc domains 2 and 3), C-terminal, kept; AviTag, C-terminal, kept
- T1 sequence (heavy, as listed by the source): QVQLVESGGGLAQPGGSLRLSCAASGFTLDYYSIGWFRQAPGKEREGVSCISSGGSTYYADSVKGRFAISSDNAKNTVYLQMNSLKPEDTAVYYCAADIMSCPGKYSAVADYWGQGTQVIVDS
- ASSAY OVERVIEW: ELISA
- CONDITIONS USED: one partner purified
MEASURED ATTRIBUTE: binding result

Value of measured binding result for the entry OROV nucleoprotein (N) of strain TRVL, native, in virus stock (natural protein, N protein of Oropouche virus strain TRVL (Anderson et al, 1961); also called OROV TRVL) MSEFIFNDVPQRTTSTFDPEAAYVAFEARYGQVLNAGVVRVFFLNQKKAKDVLRKTSRPMVDLTFGGVQFAMVNNHFPQFQSNPVPDNGLTLHRLSGYLARWAFTQMRSPIKQAEFRATVVVPLAEVKGCTWNDGDAMYLGFAAGAEMFLQTFTFFPLVIEMHRVLKDGMDVNFMKKVLRQRYGQKTAEQWMREEIVAVRAAFEAVGTLAWARTGFSPAARDFLRQFGIDI : binds
